Data provenance: PubChem BioAssay AID1159580

TEST PROTOCOL: chemical genetic growth profiling, strain panel (AID 1159580);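 also: tested at 20 µM; growth read once vehicle control cultures reached saturation at 30 °C; 1 = growth at the plate median or of vehicle wells; lower values mean less growth of the strain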
CONDITION INFO: S. cerevisiae deletion strains, growth OD, locus YJR075W, strain HOC1, hits give low values
Screen size: about 5,500 compounds; about 2,000 (36%) were called active. Not shown: some 18% with an inconclusive outcome. The list shows a part of the results.
MEASUREMENT KIND: normalized growth

MOLECULE | RECORDED VALUE
CCCCCCCCCCCCCC(=O)OC1C(C)C2(O)C(C=C(CO)CC3(O)C(=O)C(C)=CC32)C2C(C)(C)C12OC(C)=O (stereo unspecified) | 1
CC(=O)OC1CC(OC(C)=O)C2(C)C(CC(OC(C)=O)C3(C)C2CCC2(C)C(c4ccoc4)OC(=O)C4OC423)C1(C)C (stereo unspecified) | 1.01
OCc1nccn1Cc1ccc(Cl)cc1 | 0.944
NC1(C(=O)O)CCCCC1 | 0.992
NC1(C(=O)O)CCC1 | 0.891
O/N=C(/CNC(c1ccccc1)(c1ccccc1)c1ccccc1)c1ccccc1 | 1.02
NC1(C(=O)O)CCCC1 | 0.997
COc1ccccc1N1CCN(CCCCNS(=O)(=O)c2cccc3c(N(C)C)cccc23)CC1 | 0.955
C=NC(C(=O)NC1C(=O)N2C1SC(C)(C)C2C(=O)O)c1ccccc1 (stereo unspecified) | 0.991
O=C(Oc1ccc(Cl)cc1Cl)c1c(Cl)cccc1Cl | 0.945
CCCN(CCC)S(=O)(=O)c1ccc(C(=O)NCC(=O)O)cc1 | 1.02

---

TEST PROTOCOL: chemical genetic growth profiling, strain panel (AID 1159580)
CONDITION INFO: S. cerevisiae deletion strains, growth OD, locus YDR150W, strain NUM1, hits give low values
The whole screen tested about 5,500 compounds, of which about 2,000 (36%) were called active. Not shown: some 18% with an inconclusive outcome. This is one part of the list.
# normalized growth values compiled below
MEASUREMENT KIND: normalized growth

COMPOUND | RECORDED VALUE
CC(C)(CC(=O)O)CC(=O)Nc1cc(C(F)(F)F)cc(C(F)(F)F)c1 | 0.993
CCc1cccc(C)c1NC(=O)CC(C)(C)CC(=O)O | 0.981
CC1(C)C(=O)[C@@H]2O[C@@H]2[C@@]2(C)C1C[C@@H](O)[C@]1(C)C2CC[C@@]2(C)[C@H](c3ccoc3)OC(=O)C3OC321 (some centres undefined) | 1
O=C(Nc1cc(C(F)(F)F)cc(C(F)(F)F)c1)C(c1ccccc1)C1CCCC1 (centres undefined) | 1.02
CC(=O)O[C@@H]1CC2C(C)(C)C(=O)C3OC3[C@]2(C)C2CC[C@@]3(C)[C@H](c4ccoc4)OC(=O)C4OC43[C@@]21C (some centres undefined) | 1.01
CC(=O)O[C@@H]1CC2C(C)(C)[C@H](O)CC[C@]2(C)C2CC[C@@]3(C)[C@H](c4ccoc4)OC(=O)[C@H]4O[C@]43[C@@]21C (some centres undefined) | 1
CCOC(=O)c1sc2sc(C(=O)c3ccc(Cl)cc3)c(C)c2c1C | 0.91
CCOC(=O)C(O)(c1ccc(N)c(C)c1)C(F)(F)F (centres undefined) | 0.928
COc1ccc(C(=O)c2sc(Nc3ccccc3)nc2-c2ccccc2)cc1 | 1.01

---

TEST PROTOCOL: chemical genetic growth profiling, strain panel (AID 1159580);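 also: tested at 20 µM; growth read once vehicle control cultures reached saturation at 30 °C; 1 = growth at the plate median or of vehicle wells; lower values mean less growth of the strain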
CONDITION INFO: S. cerevisiae deletion strains, growth OD, locus YOL136C, strain PFK27, hits give low values
Hit rate of the full screen: of about 5,500 compounds, about 2,000 (36%) were called active. Another 18% or so got no clear call; they are omitted. The list shows a part of the results.

STRUCTURE SMILES | normalized growth
Brc1ccc(-c2csc(-c3cccnc3)n2)cc1 | 0.709
Cc1cccc(N=NC(C(=O)C(F)(F)F)=C(O)c2cccs2)c1 | 0.989
Clc1ccccc1-c1csc(-c2cccnc2)n1 | 0.819
CNC(=O)Sc1c(-c2ccc(Cl)cc2)nn(C(=O)NC)c1SC | 0.316
Cc1c(S(=O)(=O)Nc2cccc([N+](=O)[O-])c2)sc2ccc(Cl)cc12 | 0.968
O=S(=O)(Nc1cc(Cl)c(Cl)cc1Cl)c1cc(C(F)(F)F)cc(C(F)(F)F)c1 | 0.871
Clc1ccc(-c2cnc(Nc3cc(Cl)cc(Cl)c3)s2)cc1 | 0.147
Cc1ccc(S(=O)(=O)Nc2nc(-c3ccc(C)c(Cl)c3)c(C)s2)cc1 | 0.987
Clc1cccc(Nc2ncc(-c3ccc4c(c3)OCCCO4)s2)c1 | 0.873
Cc1ccc(-c2nc(NS(=O)(=O)c3cccc4nonc34)sc2C)cc1Cl | 0.999
CN(C)c1ccc(/C=C/c2ccc3ccccc3[n+]2C)cc1 | 0.786

---

TEST PROTOCOL: chemical genetic growth profiling, strain panel (AID 1159580);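 also: tested at 20 µM; growth read once vehicle control cultures reached saturation at 30 °C; 1 = growth at the plate median or of vehicle wells; lower values mean less growth of the strain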
CONDITION INFO: S. cerevisiae deletion strains, growth OD, locus YKL009W, strain mrt4, hits give low values
The whole screen tested about 5,500 compounds, of which about 2,000 (36%) were called active. Roughly 18% stayed inconclusive and do not appear here. This is one part of the list.

MOLECULE | normalized growth
CN(C)CCC(c1ccccc1)c1ccccn1 (configuration not stated) | 1.03
NCCCC(=O)O | 0.999
C1N2CN3CN1CN(C2)C3 | 0.834
COc1ccc2oc3ccccc3c(=O)c2c1 | 0.886
COc1ccc2c(=O)c(OC)c(-c3ccccc3)oc2c1 | 0.901
O=C1CCCCC/C=C/CCCCCCCCO1 | 1.01
NC1(C(=O)O)CCCC1 | 0.993
O=c1[nH]c(=O)n(C2C[C@H](O)[C@@H](CO)O2)cc1C(F)(F)F (some centres not stated) | 0.981
NC1(C(=O)O)CC1 | 1.03
COC(=O)[C@@H]1OC(=O)C2OC23[C@@]1(C)CCC1[C@@]2(C)CCC(=O)C(C)(C)C2C[C@@H](OC(C)=O)[C@]13C (some centres not stated) | 1
CC(=O)OC1CC(OC(C)=O)C2(C)C(CC(OC(C)=O)C3(C)C2CCC2(C)C(c4ccoc4)OC(=O)C4OC423)C1(C)C (configuration not stated) | 0.971
CC(=O)O[C@@H]1CC2C(C)(C)C(=O)C3OC3[C@]2(C)C2CC[C@@]3(C)[C@H](c4ccoc4)OC(=O)C4OC43[C@@]21C (some centres not stated) | 1.08
CC(=O)Oc1ccc2c(c1)CCC1C2CC[C@]2(C)C(=O)CCC12 (some centres not stated) | 0.972
CC(=O)O[C@@H]1CC2C(C)(C)[C@H](O)CC[C@]2(C)C2CC[C@@]3(C)[C@H](c4ccoc4)OC(=O)[C@H]4O[C@]43[C@@]21C (some centres not stated) | 0.996
CC(=O)O[C@H]1C[C@@H](OC(C)=O)C(C)(C)C2C[C@@H](O)[C@]3(C)C(CC[C@@]4(C)[C@H](c5ccoc5)OC(=O)[C@H]5O[C@]543)[C@]21C (some centres not stated) | 0.955
C[C@]12CCC3c4ccc(O)cc4CCC3C1CCC2=O (some centres not stated) | 0.905
CC1(C)C(=O)[C@@H]2O[C@@H]2[C@@]2(C)C1C[C@@H](O)[C@]1(C)C2CC[C@@]2(C)[C@H](c3ccoc3)OC(=O)C3OC321 (some centres not stated) | 1.02
COc1ccc2oc(-c3ccccc3)c(OC)c(=O)c2c1 | 0.877
CC(=O)O[C@@H]1CC2C(C)(C)[C@H](O)CC[C@]2(C)C2CC[C@@]3(C)[C@H](c4ccoc4)OC(=O)C4OC43[C@@]21C (some centres not stated) | 0.963
NC(=O)NC1NC(=O)NC1=O (configuration not stated) | 0.989
NC1(C(=O)O)CCC1 | 0.98
O=C(O)CCCCCCCC(=O)O | 0.937

---

TEST PROTOCOL: chemical genetic growth profiling, strain panel (AID 1159580);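 also: tested at 20 µM; growth read once vehicle control cultures reached saturation at 30 °C; 1 = growth at the plate median or of vehicle wells; lower values mean less growth of the strain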
CONDITION INFO: S. cerevisiae deletion strains, growth OD, locus YOR270C, strain vph1, hits give low values
Hit rate of the full screen: of about 5,500 compounds, about 2,000 (36%) were called active. Inconclusive results (about 18%) are left out. This is one part of the list.
# normalized growth values compiled below

MOLECULE | normalized growth
COc1ccc2c(c1)OCC(Cc1ccc(OC)c(OC)c1)C2=O (stereo unspecified) | 0.821
CC(=O)Oc1c2c(c(CC=C(C)C)c3c1C(=O)C1=C[C@@H]4CC5C(C)(C)OC(C/C=C(\C)C(=O)O)(C4=O)[C@@]15O3)OC(C)(CCC=C(C)C)C=C2 (stereo partly specified) | 0.653
CC(=O)O[C@@H]1CC2C(C)(C)[C@@H](O)CC[C@]2(C)C2CC[C@@]3(C)[C@H](c4ccoc4)OC(=O)[C@H]4O[C@]43[C@@]21C (stereo partly specified) | 0.912
CC(=O)Oc1ccc2c(c1)CCC1C2CC[C@]2(C)C(=O)CCC12 (stereo partly specified) | 0.975
CC(=O)O[C@@H]1CC2C(C)(C)[C@H](O)C=C[C@]2(C)C2CC[C@@]3(C)[C@H](c4ccoc4)OC(=O)C4OC43[C@@]21C (stereo partly specified) | 1.04
O=C(O)C(O)C(O)C(=O)O (stereo unspecified) | 0.979
COC(=O)[C@@H]1OC(=O)C2OC23[C@@]1(C)CCC1[C@]2(C)C(C[C@@H](O)[C@]13C)C(C)(C)[C@H](OC(C)=O)C[C@@H]2OC(C)=O (stereo partly specified) | 1.02
CCC(C)C(=O)c1c(O)c(C)c2oc3c(C)c(O)c(C(=O)C(C)CC)c(O)c3c2c1O (stereo unspecified) | 0.921
COc1ccc2c(c1)OCC(Cc1ccc(OC)c(OC(C)=O)c1)C2=O (stereo unspecified) | 0.88
CC1(C)C(=O)[C@@H]2O[C@@H]2[C@@]2(C)C1C[C@@H](O)[C@]1(C)C2CC[C@@]2(C)[C@H](c3ccoc3)OC(=O)C3OC321 (stereo partly specified) | 0.946
C[C@@H]1CC[C@H]2C(C)(C)C3CC12CC[C@@]3(C)O (stereo partly specified) | 0.618
COc1cc2c(cc1OC)C1(O)C(=O)c3ccc(O)c(C(=O)O)c3OC1CO2 (stereo unspecified) | 1.01
COc1c(C)c2c(c(O)c1C/C=C(\C)CCC(=O)O)C(=O)OC2 | 0.298
CC(=O)O[C@@H]1CC2C(C)(C)[C@H](O)CC[C@]2(C)C2CC[C@@]3(C)[C@H](c4ccoc4)OC(=O)C4OC43[C@@]21C (stereo partly specified) | 0.912
CC(C)c1nc(N(C)S(C)(=O)=O)nc(-c2ccc(F)cc2)c1/C=C/[C@@H](O)C[C@@H](O)CC(=O)O | 0.975
CC[C@@H]1OC(=O)C[C@@H](O)[C@H](C)[C@@H](O[C@@H]2O[C@H](C)[C@@H](O)[C@H](N(C)C)[C@H]2O)[C@@H](CCN2C[C@H](C)C[C@H](C)C2)C[C@@H](C)C(=O)/C=C/C(C)=C\[C@@H]1CO[C@@H]1O[C@H](C)[C@@H](O)[C@@H](OC)[C@H]1OC | 0.976
CC(=O)Oc1c2c(c3c(c1CC=C(C)C)O[C@]14C(=C[C@@H]5CC1C(C)(C)OC4(C/C=C(\C)C(=O)O)C5=O)C3=O)OC(C)(CCC=C(C)C)C=C2 (stereo partly specified) | 0.808
CC(=O)O[C@H]1C[C@@H](OC(C)=O)C(C)(C)C2C[C@@H](O)[C@]3(C)C(CC[C@@]4(C)[C@H](c5ccoc5)OC(=O)[C@H]5O[C@]543)[C@]21C (stereo partly specified) | 0.841
COc1cc(NS(C)(=O)=O)ccc1Cc1c2ccccc2nc2ccccc12 | 0.935
O=C1CCCN1CC#CCN1CCCC1 | 1.08
CC(C)(S)[C@@H](N)C(=O)O | 0.989
CC(=O)O[C@H]1CC[C@@]2(C)C(C[C@@H](OC(C)=O)[C@]3(C)C2CC[C@@]2(C)[C@H](c4ccoc4)OC(=O)[C@H]4O[C@]423)C1(C)C (stereo partly specified) | 1.01
COc1ccnc(CS(=O)c2nc3ccc(OC(F)F)cc3[nH]2)c1OC (stereo unspecified) | 1.2
N[C@@H](C(=O)O)[C@@H](O)[C@H](O)[C@H](O)CO | 1.12
NC(N)=NCCCCN=C(N)N | 0.991
COc1ccc(CCC(=O)c2c(O)cc(O[C@@H]3O[C@H](CO)C(O)[C@H](O)C3O[C@@H]3O[C@@H](C)[C@H](O)[C@@H](O)[C@H]3O)cc2O)cc1O (stereo partly specified) | 1.07
CC1[C@H](C)OC(=O)CC(O)CC(O)CC(O)CCC(O)C(O)C[C@]2(O)CC(O)C(C(=O)O)C(CC(OC3O[C@H](C)[C@@H](O)[C@H](N)[C@@H]3O)/C=C/C=C/C=C/C=C/CC/C=C/C=C/[C@H](C)[C@H]1O)O2 (stereo partly specified) | 0.837
COc1ccc2nc(S(=O)Cc3ncc(C)c(OC)c3C)[nH]c2c1 (stereo unspecified) | 0.994
CC1OC(O[C@H]2/C=C/C=C/C=C/C=C/C=C/C=C/C=C/[C@H](C)[C@@H](O)[C@@H](C)[C@H](C)OC(=O)CC(O)CC(O)CCC(O)C(O)CC(O)C[C@]3(O)C[C@H](O)C(C(=O)O)C(C2)O3)C(O)[C@H](N)C1O (stereo partly specified) | 0.792
Clc1ccc(C(c2ccccc2Cl)C(Cl)Cl)cc1 (stereo unspecified) | 0.789
CCCCC(=O)O[C@]1(C(=O)CO)CCC2C3CCC4=CC(=O)CC[C@]4(C)C3[C@@H](O)C[C@@]21C (stereo partly specified) | 0.869
